All values here come from ChEMBL document CHEMBL1138152.

System Under Test: Delta-type opioid receptor (Homo sapiens, UniProt P41143)
Sequence (P41143 whole entry): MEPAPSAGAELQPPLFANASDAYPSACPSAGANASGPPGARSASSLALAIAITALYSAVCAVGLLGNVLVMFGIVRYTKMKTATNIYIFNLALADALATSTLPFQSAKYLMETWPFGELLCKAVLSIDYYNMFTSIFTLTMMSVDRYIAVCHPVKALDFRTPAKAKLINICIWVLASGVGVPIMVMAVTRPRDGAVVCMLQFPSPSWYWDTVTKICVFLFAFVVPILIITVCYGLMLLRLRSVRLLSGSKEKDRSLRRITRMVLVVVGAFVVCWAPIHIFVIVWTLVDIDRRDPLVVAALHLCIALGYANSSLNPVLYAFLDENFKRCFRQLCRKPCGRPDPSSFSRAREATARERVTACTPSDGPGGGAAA
Experiment Summary: Inhibition of [35S]GTP-gamma-S binding to human delta opioid receptor expressed in CHO cells
Assay type: functional, cell-based
Assay Readout: Emax (%)
Dear colleague, please return just the value in %, with no unit written.

- CCCC[C@H](NC(=O)[C@H](CC(=O)O)NC(=O)[C@H](Cc1ccccc1)NN[C@@H](Cc1ccccc1)C(=O)NCC(=O)N[C@H](C)C(=O)N[C@@H](Cc1ccc(O)cc1)C(=O)O)C(=O)N[C@@H](Cc1cn(C(=O)OC(C)(C)C)c2ccccc12)C(=O)O: 54
- CCCC[C@H](NC(=O)[C@H](CC(=O)O)NC(=O)[C@H](Cc1ccccc1)NN[C@@H](Cc1ccccc1)C(=O)NCC(=O)N[C@H](C)C(=O)N[C@@H](Cc1ccc(O)cc1)C(=O)O)C(=O)N[C@H](Cc1cn(C(=O)OC23CC4CC(CC(C4)C2)C3)c2ccccc12)C(=O)O: 25
- CCCC[C@@H](C(=O)N[C@@H](Cc1cn(C(C)=O)c2ccccc12)C(=O)O)N(C(=O)Nc1ccccc1Cl)C(=O)[C@H](CC(=O)O)NC(=O)[C@H](Cc1ccccc1)N(C)N[C@@H](Cc1ccccc1)C(=O)NCC(=O)N[C@H](C)C(=O)N[C@@H](Cc1ccc(O)cc1)C(=O)O: 81
- CCCC[C@@H](C(=O)N[C@H](Cc1cn(C(=O)OC(C)(C)C)c2ccccc12)C(=O)O)N(C)C(=O)[C@H](CC(=O)O)NC(=O)[C@H](Cc1ccccc1)NN[C@@H](Cc1ccccc1)C(=O)NCC(=O)N[C@H](C)C(=O)N[C@@H](Cc1ccc(O)cc1)C(=O)O: 120
- CCCC[C@H](NC(=O)[C@H](CC(=O)O)NC(=O)[C@H](Cc1ccccc1)NN[C@@H](Cc1ccccc1)C(=O)NCC(=O)N[C@H](C)C(=O)N[C@@H](Cc1ccc(O)cc1)C(=O)O)C(=O)N[C@H](Cc1cn(C(=O)OC(C)(C)C)c2ccccc12)C(=O)O: 100

Fill in the recorded Emax for this compound, with Delta-type opioid receptor (Homo sapiens, UniProt P41143) as test system: CCCC[C@H](NC(=O)[C@H](CC(=O)O)NC(=O)[C@H](Cc1ccccc1)NN[C@@H](Cc1ccccc1)C(=O)NCC(=O)N[C@H](C)C(=O)N[C@@H](Cc1ccc(O)cc1)C(=O)O)C(=O)N[C@H](Cc1cn(C(=O)OC2C3CC4CC(C3)CC2C4)c2ccccc12)C(=O)O (stereo partly specified) 61
